Molecular target: hGLP-1R (Homo sapiens, UniProt P43220)
Sequence (P43220 24-463): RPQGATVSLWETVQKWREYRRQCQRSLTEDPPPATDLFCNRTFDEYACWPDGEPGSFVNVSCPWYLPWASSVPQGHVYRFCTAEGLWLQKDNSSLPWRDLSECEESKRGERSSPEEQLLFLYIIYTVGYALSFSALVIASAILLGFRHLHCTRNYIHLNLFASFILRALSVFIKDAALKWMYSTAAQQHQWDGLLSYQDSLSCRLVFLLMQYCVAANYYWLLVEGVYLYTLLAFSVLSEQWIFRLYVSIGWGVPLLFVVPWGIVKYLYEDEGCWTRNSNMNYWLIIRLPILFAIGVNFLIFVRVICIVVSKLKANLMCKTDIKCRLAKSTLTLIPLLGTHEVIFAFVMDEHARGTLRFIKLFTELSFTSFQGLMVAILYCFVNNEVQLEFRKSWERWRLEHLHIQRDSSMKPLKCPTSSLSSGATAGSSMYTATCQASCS
Assay: cell-based or functional assay
assayMetric: cAMP Rel EC50, nM (1% HSA) (nM)
Give bare numbers, in nM.

# per-item lookup of cAMP Rel EC50, nM (1% HSA); items listed below
1. YXQGTXTSDXXIXLDXKAQXXFIEXLIEGGPSSGEPPPS (synthetic construct; SITE 2: note = 2-Aminoisobutyric Acid; SITE 6: note = alpha-methyl-2-fluoro-L-phenylalanine; SITE 10: note = 3-(4-Pyridyl)-L-alanine; SITE 11: note = alpha-methyl-L-serine; SITE 13: note = alpha-methyl-leucine; SITE 16: note = L-ornithine; SITE 17: note = Lysine is chemically mo) [Example 375]
2. YXQGTXTSDXSIXLDKKAQXAFIEYLEEGGPSSGAPPPE (synthetic construct; SITE 2: note = 2-Aminoisobutyric Acid; SITE 6: note = alpha-methyl-2-fluoro-L-phenylalanine; SITE 10: note = 3-(4-Pyridyl)-L-alanine; SITE 13: note = alpha-methyl-leucine; SITE 17: note = Lysine is chemically modified through conjugation of the epsilon-amino group of the Lysine) [Example 445]

RESULT:
1. 18
2. 23.2

QUERY: Reported cAMP Rel EC50, nM (1% HSA) for YXQGTFTSDXSQXLDKKAQXAFIEYLIEXGESSGAPPPSGE (acylated; synthetic construct; SITE 2: note = 2-Aminoisobutyric Acid; SITE 10: note = 3-(4-Pyridyl)-L-alanine; SITE 13: note = alpha-methyl-leucine; SITE 17: note = Lysine is chemically modified through conjugation of the epsilon-amino group of the Lysine side chain with (2-[2-(2-Amino-ethoxy)-ethoxy]-acetyl)) [Example 227] : what is it?
RESULT: 418
